system: MPS IIIB fibroblasts; assay: Number of lysosomal structures by electron microscopy, MPS IIIB; format: cell-based, human; conditions: 30 μM
Flag rule - Number of structures per 100 μm^2 of cellular cross section ± SD, total number less than 0.4 per 100 μm^2 flags class 1; the remaining entries get class 0.

# Smiles, Assay Target, Class Assignment
measured = [
    ("CC(C)Oc1ccc(-c2coc3cc(O)cc(O)c3c2=O)cc1", "MPS IIIB fibroblasts", "class 1"),
    ("CC(=O)OCCCCCOc1cc(O)c2c(=O)c(-c3ccc(O)cc3)coc2c1", "MPS IIIB fibroblasts", "class 1"),
    ("CCC(=O)OCOc1cc(O)c2c(=O)c(-c3ccc(O)cc3)coc2c1", "MPS IIIB fibroblasts", "class 0"),
]
